The entries below are paired with their reported pIC50.
system: BT474 breast carcinoma; assay: Cell Proliferation Inhibition Assay, BT474 (14C-thymidine); assay type: cell-based; details: Homo sapiens, BT-474, C14 method
Interpret pIC50 as the negative base-10 log of the concentration measured in mol/L.

O=C(Nc1ccc(CN2CCOCC2)cc1)c1sc2ncnc3c2c1NC(=O)N3c1ccc(OCc2ccccn2)c(Cl)c1 ... 5.22

BT474 breast carcinoma / pIC50 / O=C(Nc1ccc(CN2CCCCC2)cc1)c1sc2ncnc3c2c1NC(=O)N3c1ccc(F)c(Cl)c1 : value?
5.02

Param readout = pIC50; param system = BT474 breast carcinoma; param query = O=C(Nc1ccc(CN2CCCCC2)cc1)c1sc2ncnc3c2c1NC(=O)N3c1ccc(Sc2ccccc2)cc1 ; response: value
6.42

What pIC50 appears in the records for this molecule with BT474 breast carcinoma? O=C(Nc1ccc(CN2CCOCC2)cc1)c1sc2ncnc3c2c1NC(=O)N3c1ccc(Sc2ccccc2)cc1
6.80

Numbers sourced from patent US7579356B2.
